Target: Vhr1 (UniProt P40522)
Sequence: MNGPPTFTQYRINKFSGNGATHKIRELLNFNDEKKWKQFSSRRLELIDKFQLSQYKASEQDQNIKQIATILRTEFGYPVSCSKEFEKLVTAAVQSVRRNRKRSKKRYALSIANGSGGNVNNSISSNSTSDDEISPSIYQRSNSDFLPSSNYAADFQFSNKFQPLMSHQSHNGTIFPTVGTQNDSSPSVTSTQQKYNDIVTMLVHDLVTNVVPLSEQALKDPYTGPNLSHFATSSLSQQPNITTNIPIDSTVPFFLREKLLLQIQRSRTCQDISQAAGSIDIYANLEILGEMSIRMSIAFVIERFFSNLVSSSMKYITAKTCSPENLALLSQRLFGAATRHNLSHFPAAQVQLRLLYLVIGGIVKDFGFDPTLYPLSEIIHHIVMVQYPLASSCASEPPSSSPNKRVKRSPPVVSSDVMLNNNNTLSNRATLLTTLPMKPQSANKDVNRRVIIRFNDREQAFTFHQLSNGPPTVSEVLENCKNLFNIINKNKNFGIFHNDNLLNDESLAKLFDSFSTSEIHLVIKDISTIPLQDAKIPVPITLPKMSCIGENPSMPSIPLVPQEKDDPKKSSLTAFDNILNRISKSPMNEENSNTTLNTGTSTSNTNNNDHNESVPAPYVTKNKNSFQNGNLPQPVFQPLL
Experiment: PBM E-score (8-mer binding enrichment) (E-score (-0.5 to 0.5)); higher = stronger / more preferred TF binding
Conditions: protein concentration: 200 nM; construct: GST-full length
The full ranking holds about 33,000 sequences; the median of “E-score (-0.5 to 0.5)” is about -0.012, and the highest 2% start at about 0.27. This excerpt belongs to a sample that is enriched for the highest values.
Listing: PBM E-score of selected sequences
Property Measured: PBM E-score

[
  {
    "Sequence": "CCTAGTCC",
    "Numeric Result": -0.0886
  },
  {
    "Sequence": "GATAGTCA",
    "Numeric Result": 0.357
  },
  {
    "Sequence": "ACGGTCAT",
    "Numeric Result": 0.156
  },
  {
    "Sequence": "AAACTGGG",
    "Numeric Result": -0.192
  },
  {
    "Sequence": "ACCCAGGC",
    "Numeric Result": 0.302
  },
  {
    "Sequence": "CACCATGA",
    "Numeric Result": 0.143
  },
  {
    "Sequence": "ACTAGTCC",
    "Numeric Result": 0.133
  },
  {
    "Sequence": "CTTACCCA",
    "Numeric Result": 0.104
  },
  {
    "Sequence": "CCCAACCC",
    "Numeric Result": 0.118
  },
  {
    "Sequence": "ACCCAGGA",
    "Numeric Result": -0.00244
  },
  {
    "Sequence": "CCATAGGC",
    "Numeric Result": -0.172
  },
  {
    "Sequence": "ACCCAGGT",
    "Numeric Result": 0.0206
  },
  {
    "Sequence": "CCCAACCA",
    "Numeric Result": 0.275
  },
  {
    "Sequence": "AATAGTCT",
    "Numeric Result": -0.0519
  },
  {
    "Sequence": "CATAGTCA",
    "Numeric Result": 0.37
  },
  {
    "Sequence": "GCTAGTTA",
    "Numeric Result": 0.00532
  },
  {
    "Sequence": "ACTATGTC",
    "Numeric Result": 0.091
  },
  {
    "Sequence": "CCCCATGA",
    "Numeric Result": 0.0682
  },
  {
    "Sequence": "CATGGAGG",
    "Numeric Result": -0.101
  },
  {
    "Sequence": "CCGTGTTC",
    "Numeric Result": 0.271
  },
  {
    "Sequence": "ACCCATGC",
    "Numeric Result": 0.273
  },
  {
    "Sequence": "GCCCATGA",
    "Numeric Result": 0.262
  },
  {
    "Sequence": "CGGAATAA",
    "Numeric Result": -0.0766
  },
  {
    "Sequence": "GCTGACCC",
    "Numeric Result": 0.0256
  },
  {
    "Sequence": "GATAGTAA",
    "Numeric Result": 0.0876
  },
  {
    "Sequence": "CTTAAGCC",
    "Numeric Result": -0.234
  },
  {
    "Sequence": "TCTAGTCA",
    "Numeric Result": 0.218
  },
  {
    "Sequence": "AACCATGC",
    "Numeric Result": 0.234
  },
  {
    "Sequence": "ACTAGTCA",
    "Numeric Result": 0.292
  },
  {
    "Sequence": "AACCATGA",
    "Numeric Result": 0.351
  },
  {
    "Sequence": "CGGACTCA",
    "Numeric Result": 0.381
  },
  {
    "Sequence": "CCTAGTCA",
    "Numeric Result": 0.309
  },
  {
    "Sequence": "GCTAGTCC",
    "Numeric Result": -0.158
  },
  {
    "Sequence": "CATAGTCC",
    "Numeric Result": 0.115
  },
  {
    "Sequence": "ACGTGTTC",
    "Numeric Result": -0.219
  },
  {
    "Sequence": "AGGACTCA",
    "Numeric Result": 0.376
  }
]

====

Target: Vhr1 (UniProt P40522)
Sequence: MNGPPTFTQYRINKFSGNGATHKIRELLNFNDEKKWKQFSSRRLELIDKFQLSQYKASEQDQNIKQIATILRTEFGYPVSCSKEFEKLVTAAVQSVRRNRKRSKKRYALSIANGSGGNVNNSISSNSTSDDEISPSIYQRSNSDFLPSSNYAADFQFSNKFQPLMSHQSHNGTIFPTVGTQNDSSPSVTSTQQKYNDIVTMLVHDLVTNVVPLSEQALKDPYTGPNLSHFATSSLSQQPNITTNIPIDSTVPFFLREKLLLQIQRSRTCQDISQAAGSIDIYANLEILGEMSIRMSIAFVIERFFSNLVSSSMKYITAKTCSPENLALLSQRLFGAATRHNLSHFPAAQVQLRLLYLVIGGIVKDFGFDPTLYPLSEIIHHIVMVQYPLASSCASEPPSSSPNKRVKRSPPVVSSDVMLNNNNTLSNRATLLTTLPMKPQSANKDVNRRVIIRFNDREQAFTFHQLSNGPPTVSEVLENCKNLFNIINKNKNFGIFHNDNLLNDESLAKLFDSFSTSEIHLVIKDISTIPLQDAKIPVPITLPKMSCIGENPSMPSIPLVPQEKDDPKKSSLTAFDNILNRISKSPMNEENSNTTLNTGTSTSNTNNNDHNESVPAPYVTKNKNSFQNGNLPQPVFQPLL
Test: PBM E-score (8-mer binding enrichment) (E-score (-0.5 to 0.5)); higher = stronger / more preferred TF binding
Conditions: protein concentration: 200 nM; construct: GST-full length
Over roughly 33,000 sequences, “E-score (-0.5 to 0.5)” has its median near -0.012; the highest 2% begin near 0.27. The full list was thinned out, with the highest values kept by preference.
Listing: PBM E-score of selected sequences

[
  {
    "Sequence": "CGTGATCC",
    "PBM E-score": -0.0765
  },
  {
    "Sequence": "ACGATTGC",
    "PBM E-score": 0.0187
  },
  {
    "Sequence": "ATGATTGG",
    "PBM E-score": 0.178
  },
  {
    "Sequence": "ATTGATTG",
    "PBM E-score": 0.0691
  },
  {
    "Sequence": "ATCCTCCC",
    "PBM E-score": -0.107
  },
  {
    "Sequence": "ACGATTGA",
    "PBM E-score": 0.0265
  },
  {
    "Sequence": "AGTGATAG",
    "PBM E-score": -0.0174
  },
  {
    "Sequence": "CAACCTCC",
    "PBM E-score": 0.0131
  },
  {
    "Sequence": "CTGATTGA",
    "PBM E-score": 0.177
  },
  {
    "Sequence": "ACGGTAAT",
    "PBM E-score": -0.0641
  },
  {
    "Sequence": "CGCGATTC",
    "PBM E-score": 0.278
  },
  {
    "Sequence": "CCAGGACA",
    "PBM E-score": -0.0732
  },
  {
    "Sequence": "CTACTGAA",
    "PBM E-score": 0.132
  }
]
